Please go through the items and note down their pIC50.
Biological target: HCV polymerase (NS5B) type 1a (Hepatitis C virus genotype 1a, UniProt P26664)
Construct: made in house; host or cells: Escherichia coli (by the 'similar method' of the 1b enzyme)
Assay: Assay of enzyme (HCV polymerase) inhibitory activity, type 1a enzyme
Type: biochemical, HCV type 1a (cloned from the blood of patients)
Conditions: HCV polymerase inhibitory activity (IC50), 1a, type 1a enzyme 1.5 μg/ml, 25° C., 60 min
pIC50: −log10 of the molar value.

Examples with answers:
[
  {
    "compound": "CCCc1ccc(CNC(=O)[C@H]2CN(C(=O)Cn3cnnn3)CCN2S(=O)(=O)c2ccc(OC(F)(F)F)cc2)cc1",
    "pIC50": "> 7.00"
  },
  {
    "compound": "CC(C)c1ccc(CNC(=O)[C@H]2CN(C(=O)Cc3c[nH]cn3)CCN2S(=O)(=O)c2ccc(C(F)(F)F)cc2)cc1",
    "pIC50": "6.00 to 7.00"
  },
  {
    "compound": "CC(=O)N1CCN(S(=O)(=O)c2ccc(C(C)C)cc2)C(C(=O)NCc2ccc(C(F)(F)F)nc2)C1 (stereo not shown)",
    "pIC50": "< 6.00"
  }
]

Parameters: items (list). Returns: pIC50 for each item.
1. CCc1ccc(S(=O)(=O)N2CCN(C(C)=O)CC2C(=O)NCc2ccc(C(F)(F)F)cc2)cc1 (stereo not shown)
2. COC(=O)CCC(=O)NCC(=O)N1CCN(S(=O)(=O)c2ccc(C(F)(F)F)cc2)[C@@H](C(=O)NCc2ccc(C(C)C)cc2)C1

1: < 6.00; 2: 6.00 to 7.00

Parameters: items (list). Returns: pIC50 for each item.
1. CCCc1ccc(CNC(=O)[C@H]2CN(C(C)=O)CCN2S(=O)(=O)c2ccc(OC(F)(F)F)cc2)cc1O
2. CC(=O)N1CCN(S(=O)(=O)c2ccccc2)C(C(=O)NCc2ccc(C(F)(F)F)cc2)C1 (stereo not shown)

1: < 6.00; 2: < 6.00

* * *

Molecular target: HCV polymerase (NS5B) type 1b (Hepatitis C virus genotype 1b, UniProt P26663)
Construct: a region encoding NS5B (J Virol 1991 March, 65(3), 1105-13, 544 amino acids after deletion of 47 amino acids on the C-terminal); 6xHis (C); made in house; host or cells: Escherichia coli
Assay: Assay of enzyme (HCV polymerase) inhibitory activity, type 1b enzyme
Assay type: biochemical, HCV BK strain (type 1b)
Settings: HCV polymerase inhibitory activity (IC50), 1b, type 1b enzyme 0.5 μg/ml, 25° C., 60 min
pIC50: −log10 of the molar value. Where a name gives a salt, the structure may show the parent alone.
Please go through the items and note down their pIC50.

Examples with answers:
[
  {
    "compound": "CCCc1ccc(CNC(=O)[C@H]2CN(c3nc(C(F)(F)F)c(C(=O)OCC)s3)CCN2S(=O)(=O)c2ccc(OC(F)(F)F)cc2)cc1",
    "pIC50": "6.00 to 7.00"
  },
  {
    "compound": "CC(C)c1ccc(CNC(=O)[C@H]2CN(C(=O)CCN)CCN2S(=O)(=O)c2ccc(C(F)(F)F)cc2)cc1 [Example 189, hydrochloride]",
    "pIC50": "< 6.00"
  },
  {
    "compound": "CC(=O)N1CCN(S(=O)(=O)c2ccc(C(C)C)cc2)C(C(=O)NCc2ccc(C(F)(F)F)nc2)C1 (centres unmarked)",
    "pIC50": "< 6.00"
  },
  {
    "compound": "CCCc1ccc(CNC(=O)[C@H]2CN(c3nc(CC)c(C(=O)O)s3)CCN2S(=O)(=O)c2ccc(OC(F)(F)F)cc2)c(C)c1",
    "pIC50": "> 7.00"
  },
  {
    "compound": "CCCc1ccc(CNC(=O)[C@H]2CN(c3cc(C)c(C(=O)O)nn3)CCN2S(=O)(=O)c2ccc(OC(F)(F)F)cc2)cc1",
    "pIC50": "> 7.00"
  }
]

Parameters: items (list). Returns: pIC50 for each item.
1. COc1cccc(S(=O)(=O)N2CCN(C(C)=O)CC2C(=O)NCc2ccc(C(F)(F)F)cc2)c1 (centres unmarked)
2. CN(C)c1ccc(CNC(=O)[C@H]2CN(C(=O)CN3CCCC3)CCN2S(=O)(=O)c2ccc(I)cc2)cc1
3. CCOC(=O)c1nnc(NC(=O)N2CCN(S(=O)(=O)c3ccc(OC(F)(F)F)cc3)[C@@H](C(=O)NCc3ccc(C(F)(F)CC)cc3)C2)s1
4. Cc1nc(N2CCN(S(=O)(=O)c3ccc(C(F)(F)F)cc3)[C@@H](C(=O)NCc3ccc(C(C)C)cc3)C2)ncc1C(=O)O

1: < 6.00; 2: < 6.00; 3: < 6.00; 4: 6.00 to 7.00

Parameters: items (list). Returns: pIC50 for each item.
1. CCCc1ccc(CNC(=O)[C@H]2CN(C(C)=O)CCN2S(=O)(=O)c2ccc(OC(F)(F)F)cc2)c(=O)[nH]1
2. CCC(F)(F)c1ccc(CNC(=O)[C@H]2CN(C(=O)Nc3cc(C)ns3)CCN2S(=O)(=O)c2ccc(OC(F)(F)F)cc2)cc1
3. CC(C)c1ccc(CNC(=O)[C@H]2CN(C(=O)Nc3ccncn3)CCN2S(=O)(=O)c2ccc(C(F)(F)F)cc2)cc1
4. CC(=O)N1CCN(S(=O)(=O)c2ccc(C(C)C)cc2)[C@H](C(=O)NCc2ccc(C(F)(F)F)cc2)C1

1. < 6.00
2. > 7.00
3. > 7.00
4. < 6.00

Parameters: items (list). Returns: pIC50 for each item.
1. CCC(F)(F)c1ccc(CNC(=O)[C@H]2CN(C(=O)Cc3ccncn3)CCN2S(=O)(=O)c2ccc(OC(F)(F)F)cc2)cc1
2. CCc1ccc(S(=O)(=O)N2CCN(c3cnc(C(=O)O)cn3)C[C@@H]2C(=O)NCc2ccc(C(F)(F)CC)cc2)cc1
3. CCC(F)(F)c1ccc(CNC(=O)[C@H]2CN(c3ccnc(N)n3)CCN2S(=O)(=O)c2ccc(OC(F)(F)F)cc2)cc1
4. COc1ccc(CNC(=O)C2CN(C(C)=O)CCN2S(=O)(=O)c2ccc(C(C)C)cc2)cc1 (centres unmarked)
5. CC(=O)N1CCc2nc(N3CCN(S(=O)(=O)c4ccc(OC(F)(F)F)cc4)[C@@H](C(=O)NCc4ccc(C(C)(C)C)cc4)C3)sc2C1

> 7.00
> 7.00
> 7.00
< 6.00
> 7.00
